- measuredOn: Kv2.1 (Rattus norvegicus, UniProt P15387)
- Construct: expressed in transfected cells; host or cells: Xenopus laevis oocytes (cRNA injection, pGA1 vector)
- Sequence (P15387 whole entry): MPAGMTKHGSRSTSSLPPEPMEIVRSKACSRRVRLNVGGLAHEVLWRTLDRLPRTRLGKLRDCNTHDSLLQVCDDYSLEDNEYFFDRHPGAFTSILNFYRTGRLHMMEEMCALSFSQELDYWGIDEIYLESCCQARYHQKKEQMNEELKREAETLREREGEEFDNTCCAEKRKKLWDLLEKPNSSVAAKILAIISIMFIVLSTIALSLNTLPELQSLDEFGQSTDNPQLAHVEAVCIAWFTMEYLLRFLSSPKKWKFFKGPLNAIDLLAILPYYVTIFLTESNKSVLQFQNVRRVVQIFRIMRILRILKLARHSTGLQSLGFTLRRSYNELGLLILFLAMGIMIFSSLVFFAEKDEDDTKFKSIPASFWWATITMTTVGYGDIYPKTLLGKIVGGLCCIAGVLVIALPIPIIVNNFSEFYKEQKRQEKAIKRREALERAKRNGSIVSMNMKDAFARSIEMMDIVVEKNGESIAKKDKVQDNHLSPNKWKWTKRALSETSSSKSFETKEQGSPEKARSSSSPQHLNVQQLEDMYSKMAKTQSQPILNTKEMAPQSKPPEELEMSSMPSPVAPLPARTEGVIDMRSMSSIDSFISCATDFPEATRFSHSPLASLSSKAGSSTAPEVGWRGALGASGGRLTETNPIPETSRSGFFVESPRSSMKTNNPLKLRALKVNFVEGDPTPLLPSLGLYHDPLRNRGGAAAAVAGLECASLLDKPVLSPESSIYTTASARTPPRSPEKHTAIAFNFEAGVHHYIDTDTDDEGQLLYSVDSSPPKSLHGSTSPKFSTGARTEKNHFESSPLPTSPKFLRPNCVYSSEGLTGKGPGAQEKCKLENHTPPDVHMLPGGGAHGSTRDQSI
- assay: Two-electrode voltage clamp (TEVC) of Xenopus oocytes expressing Kv2.1, bath-applied compound
- Assay type: cell-based
- conditionNotes: Kv2.1, logistic dose response fit, Example 8; read-out: IC50
parameter: IC50

1. c1cc(C[N+]23CCN(CC2)CC3)ccc1C[N+]12CCN(CC1)CC2 :: 186 µM

###

- measuredOn: Kv2.1 (Rattus norvegicus, UniProt P15387)
- Construct: expressed in transfected cells; host or cells: Xenopus laevis oocytes (cRNA injection, pGA1 vector)
- assay: Two-electrode voltage clamp (TEVC) of Xenopus oocytes expressing Kv2.1, bath-applied compound
- Format: cell-based
- conditionNotes: Kv2.1, Example 8
Below, each entry is listed alongside its reported slope of dose response curve.
parameter: slope of dose response curve

1. CCCCCCCCCCCCCCCC[N+]12CCN(CC1)CC2 [TA279] :: 0.6
2. C(CCCC[N+]12CCN(CC1)CC2)CCC[N+]12CCN(CC1)CC2 [TG27] :: 2.1
3. CCCCCCCCCCCC[N+]12CCN(CC1)CC2 [JE188] :: 1.4
4. c1cc(C[N+]23CCN(CC2)CC3)ccc1C[N+]12CCN(CC1)CC2 [JC638.2α] :: 1.4

###

- measuredOn: Kv2.1 (Rattus norvegicus, UniProt P15387)
- Construct: expressed in transfected cells; host or cells: Xenopus laevis oocytes (cRNA injection, pGA1 vector)
- assay: Two-electrode voltage clamp (TEVC) of Xenopus oocytes expressing Kv2.1, bath-applied compound
- Assay type: cell-based
- conditionNotes: 1 mM, bath applied
parameter: effect on Kv2.1 currents

1) C(CCCCCC[N+]12CCN(CC1)CC2)CCCCC[N+]12CCN(CC1)CC2 :: block
